# Tested on: A. non-baumannii isolates (n = 87)
# protocol.text: MIC, broth microdilution (EUCAST), A. non-baumannii isolates
# Assay type: cell-based, Acinetobacter spp. (non-baumannii)
# particulars: Acinetobacter pittii, isolate NO-Ab111, Acinetobacter pittii; in combinations ETZ fixed at 8 mg/L; read-out: MIC
metric: MIC (mg/L)
Only the number, expressed in mg/L, is required.

Some compounds with known MIC results, for comparison:
Incoming: What value of MIC has been reported for the following compound? C[C@@H](O)[C@H]1C(=O)N2C(C(=O)O)=C(SCCN=CN)C[C@H]12 [imipenem]
Outgoing: 0.12

Incoming: Next compound: CO/N=C(\C(=O)N[C@@H]1C(=O)N2C(C(=O)[O-])=C(C[N+]3(C)CCCC3)CS[C@H]12)c1csc(N)n1 [cefepime]
Outgoing: 1

Incoming: Next compound: C[n+]1ccn(C[C@@]2(C)[C@H](C(=O)[O-])N3C(=O)C[C@H]3S2(=O)=O)n1 [enmetazobactam]
Outgoing: 2

***
Incoming: What value of MIC has been reported for the following compound? CC1(C)[C@H](C(=O)O)N2C(=O)C[C@H]2S1(=O)=O [sulbactam]
Outgoing: 1

----------
Measured MIC values are reported for all entries that follow.
# Tested on: A. non-baumannii isolates (n = 87)
# protocol.text: MIC, broth microdilution (EUCAST), A. non-baumannii isolates
# Format: cell-based, Acinetobacter spp. (non-baumannii)
# particulars: Acinetobacter beijerinckii, isolate NO-Ab122, Acinetobacter beijerinckii; in combinations ETZ fixed at 8 mg/L; read-out: MIC
Only the number, expressed in µg/mL, is required.

Some compounds with known MIC results, for comparison:
Incoming: Kindly state the measured MIC obtained for CO/N=C(\C(=O)N[C@@H]1C(=O)N2C(C(=O)[O-])=C(C[N+]3(C)CCCC3)CS[C@H]12)c1csc(N)n1 [cefepime] with A. non-baumannii isolates (n = 87).
Outgoing: 2

Incoming: Next compound: C[n+]1ccn(C[C@@]2(C)[C@H](C(=O)[O-])N3C(=O)C[C@H]3S2(=O)=O)n1
Outgoing: 2

Incoming: Next compound: CC1(C)[C@H](C(=O)O)N2C(=O)C[C@H]2S1(=O)=O
Outgoing: 2

Query compound follows.
Incoming: Kindly state the measured MIC obtained for C[C@@H](O)[C@H]1C(=O)N2C(C(=O)O)=C(SCCN=CN)C[C@H]12 with A. non-baumannii isolates (n = 87).
Outgoing: 0.12

----------
# target.or.system: PBP2 (Acinetobacter baumannii, UniProt D0C8Z9)
# Construct: endogenous in cells; host or cells: A. baumannii ATCC 19606 membrane fraction
# Sequence (D0C8Z9 whole entry): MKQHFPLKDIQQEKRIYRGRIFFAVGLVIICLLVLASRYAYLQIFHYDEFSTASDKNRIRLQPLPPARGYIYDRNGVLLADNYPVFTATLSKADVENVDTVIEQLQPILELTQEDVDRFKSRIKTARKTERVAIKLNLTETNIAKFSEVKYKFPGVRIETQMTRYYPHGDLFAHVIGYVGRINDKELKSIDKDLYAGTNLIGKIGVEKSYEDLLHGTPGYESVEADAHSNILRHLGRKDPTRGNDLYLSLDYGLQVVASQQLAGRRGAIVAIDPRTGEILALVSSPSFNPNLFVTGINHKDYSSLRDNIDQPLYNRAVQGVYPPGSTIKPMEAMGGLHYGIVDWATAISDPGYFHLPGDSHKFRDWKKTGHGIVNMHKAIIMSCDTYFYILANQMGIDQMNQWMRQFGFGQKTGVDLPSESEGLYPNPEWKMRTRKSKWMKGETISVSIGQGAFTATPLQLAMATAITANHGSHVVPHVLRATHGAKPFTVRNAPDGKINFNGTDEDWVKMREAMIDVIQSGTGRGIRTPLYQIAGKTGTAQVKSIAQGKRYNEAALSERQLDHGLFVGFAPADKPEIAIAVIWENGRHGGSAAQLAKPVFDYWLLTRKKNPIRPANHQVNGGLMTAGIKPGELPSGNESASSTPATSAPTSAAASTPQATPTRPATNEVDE
# protocol.text: PBP-binding assay, Bocillin FL competition, membrane preparations
# particulars: IC50 (binding affinity) PBP2, membrane preparations, A. baumannii ATCC 19606
pIC50: −log10 of the molar value.
metric: pIC50

Incoming: What value of pIC50 has been reported for the following compound? CC1(C)[C@H](C(=O)O)N2C(=O)C[C@H]2S1(=O)=O
Outgoing: < 3.56

----------
Measured MIC distribution 0.12 values are reported for all entries that follow.
# System: A. non-baumannii isolates (n = 87)
# protocol.text: MIC, broth microdilution (EUCAST), A. non-baumannii isolates
# Assay type: cell-based, Acinetobacter spp. (non-baumannii)
Format: numeric value only, no unit, no commentary.

Some molecules with known MIC distribution 0.12 results, for comparison:
Incoming: What value of MIC distribution 0.12 has been reported for the following molecule? CC1(C)[C@H](C(=O)O)N2C(=O)C[C@H]2S1(=O)=O
Outgoing: 2.3

Incoming: Next molecule: C[C@@H](O)[C@H]1C(=O)N2C(C(=O)O)=C(SCCN=CN)C[C@H]12
Outgoing: 71.3

Incoming: Next molecule: C[n+]1ccn(C[C@@]2(C)[C@H](C(=O)[O-])N3C(=O)C[C@H]3S2(=O)=O)n1
Outgoing: 0

Query molecule follows.
Incoming: What value of MIC distribution 0.12 has been reported for the following molecule? CO/N=C(\C(=O)N[C@@H]1C(=O)N2C(C(=O)[O-])=C(C[N+]3(C)CCCC3)CS[C@H]12)c1csc(N)n1 [cefepime]
Outgoing: 1.1

Value source: paper PMC12888861
